The origin of these recorded values is PubChem BioAssay (NCI).

Recorded growth inhibition for the following molecules
test: NCI Yeast Anticancer Drug Screen. Data for the rad50 strain (AID 155);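 also: 0% = growth of vehicle-only cultures of the same strain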; details: S. cerevisiae rad50 strain growth inhibition; at 5.0 µM (retest, dose inferred, filed as 0.5); stronger effect = higher value
About 79,000 compounds went through this panel and 15% of them were active in at least one assay; those are over-represented in the sample as a whole.

{"columns": ["molecule", "growth inhibition, %"],
 "data": [
  ["Cc1nn(C(=S)S)c(C)c1N=Nc1cccc(F)c1", 15],
  ["O=Cc1[nH]c(=S)[nH]c(=O)c1Cc1cccc2ccccc12", -8],
  ["Cc1cc(NS(=O)(=O)c2ccc(NCc3c4ccccc4nc4cc(Cl)ccc34)cc2)no1", 26],
  ["O=C(C(Cl)Cl)N(O)c1ccccc1OCc1ccccc1", 10],
  ["COC(=O)c1ccc(C)cc1C1CN=NC12Cc1cccc(C)c1C2=O (stereo not given)", 1],
  ["Cc1ccc(N2CC(O)CN(c3ccc(C)cc3)CC(O)C2)cc1 (stereo not given)", 0],
  ["Cc1ccccc1NC(=O)CSC(N)=O", 2],
  ["O/N=C(/Cc1nc2cc(Cl)c(Cl)cc2nc1C/C(=N/O)c1ccncc1)c1ccncc1", 5],
  ["N=C(N)SCc1cc(Cl)cc(Cl)c1O", 8],
  ["CN(C)CCC(=O)c1ccco1", 6],
  ["c1nc2nc(N3CCOCC3)nc(N3CCCCC3)c2[nH]1", -22],
  ["CCOc1ccc(/C=C\\c2ccnc3ccccc23)cc1OCC", -5],
  ["COC1CC(OC(=O)c2ccccc2)C(OC(=O)c2ccccc2)C(C)O1 (stereo not given)", -5],
  ["CS(=O)(=O)C(=Cc1ccccc1Cl)S(C)(=O)=O", 30],
  ["O=C(Nn1c(-c2ccccc2)nc2ccccc2c1=O)c1ccccc1O", -4]
]}
